- target-entity: T1, ECF22_1147
- T1 chain: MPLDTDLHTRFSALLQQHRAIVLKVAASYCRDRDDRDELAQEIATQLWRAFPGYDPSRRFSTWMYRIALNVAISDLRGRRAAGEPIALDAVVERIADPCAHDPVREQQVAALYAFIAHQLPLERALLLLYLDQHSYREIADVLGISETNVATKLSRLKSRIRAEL
The entries below are paired with their reported fold repression.
Number only, no unit.

Please review the following examples before continuing.
Prompt: Quick check: fold repression of AS33_375 (protein) MMALSKKMLEQEPSEIELLLPWHAAGTLNARDARRVEDALARDPELAKQYAAIRGEYEETIHLNESLGAPSARAMQKLFGAIDAEPARETGSLPLSARIATFFASLSPRTLAWSASLGAVALVLQAGIIGAVLMKTQPTTFQTASLSTSAPITRELGAAVAPARALVRFTPEARVADITALLDSYQASIIGDAKGGMFRLQFDKAMSQDELASLLGRMQREKFVNLAVAAP ?
Response: 12.9

Prompt: Quick check: fold repression of AS35_3582 (protein) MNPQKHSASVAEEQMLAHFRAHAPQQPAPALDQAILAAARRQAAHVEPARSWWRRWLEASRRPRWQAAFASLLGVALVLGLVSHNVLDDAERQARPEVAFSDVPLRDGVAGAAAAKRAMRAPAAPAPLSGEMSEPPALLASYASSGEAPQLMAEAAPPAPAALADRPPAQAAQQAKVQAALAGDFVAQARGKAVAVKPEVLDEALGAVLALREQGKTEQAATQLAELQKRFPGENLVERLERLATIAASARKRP ?
Response: 10.9

Next:
Prompt: Quick check: fold repression of AS25_1643_cl43 (protein) MTTDSNFNDPCRRQFSRDLPQKMARHTNEATGAMDMVKRDRFELLSAYLGGEVTAAERRQVEDWPANDVAVQRLYSRLLKLRQGIRTMPIPTAQQSPETTAEQVFAKVNRRSRLAWKLGGAAVAACVIGAVTNWLPGRQTGIPQLAQQPQEQPTQAVTTPDALPMIALNNPVIEIPKAAVASPTKFIQPQPQLGEIPPDIN ?
Response: 5.45
